Ref: BigSolDB 2.1

condition.label: in cyclohexanone, 313.15 K

[
  {
    "mol": "COc1ccc(C(=O)O)cc1",
    "solubility (mole fraction)": 0.0397
  }
]

---

condition.label: in sec-butanol, 303.15 K

[
  {
    "mol": "COc1ccc(C(=O)O)cc1",
    "solubility (mole fraction)": 0.0149
  }
]

---

condition.label: in n-propyl acetate, 283.15 K

[
  {
    "mol": "COc1ccc(C(=O)O)cc1",
    "solubility (mole fraction)": 0.00732
  }
]

---

condition.label: in 2-butanone, 283.15 K

[
  {
    "mol": "COc1ccc(C(=O)O)cc1",
    "solubility (mole fraction)": 0.0107
  }
]

---

condition.label: in THF, 313.15 K

[
  {
    "mol": "COc1ccc(C(=O)O)cc1",
    "solubility (mole fraction)": 0.078
  }
]

---

condition.label: in isobutanol, 318.15 K
parameter: solubility (mole fraction)

[
  {
    "mol": "COc1ccc(C(=O)O)cc1",
    "assay.value": 0.0206
  }
]

---

condition.label: in n-butyl acetate, 313.15 K
parameter: solubility (mole fraction)

[
  {
    "mol": "COc1ccc(C(=O)O)cc1",
    "assay.value": 0.0158
  }
]

---

condition.label: in n-butanol, 293.15 K

[
  {
    "mol": "COc1ccc(C(=O)O)cc1",
    "solubility (mole fraction)": 0.00946
  }
]

---

condition.label: in n-pentanol, 283.15 K
parameter: solubility (mole fraction)

[
  {
    "mol": "COc1ccc(C(=O)O)cc1",
    "parameter": "solubility (mole fraction)",
    "assay.value": 0.00696
  }
]

---

condition.label: in n-pentanol, 323.15 K
parameter: solubility (mole fraction)

[
  {
    "mol": "COc1ccc(C(=O)O)cc1",
    "parameter": "solubility (mole fraction)",
    "assay.value": 0.0272
  }
]

---

condition.label: in n-butyl acetate, 318.15 K
parameter: solubility (mole fraction)

[
  {
    "mol": "COc1ccc(C(=O)O)cc1",
    "assay.value": 0.0178
  }
]

---

condition.label: in 2-butanone, 323.15 K

[
  {
    "mol": "COc1ccc(C(=O)O)cc1",
    "solubility (mole fraction)": 0.0343
  }
]

---

condition.label: in n-pentanol, 313.15 K

[
  {
    "mol": "COc1ccc(C(=O)O)cc1",
    "solubility (mole fraction)": 0.0197
  }
]

---

condition.label: in THF, 318.15 K

[
  {
    "mol": "COc1ccc(C(=O)O)cc1",
    "solubility (mole fraction)": 0.085
  }
]

---

condition.label: in acetone, 283.15 K

[
  {
    "mol": "COc1ccc(C(=O)O)cc1",
    "solubility (mole fraction)": 0.0129
  }
]

---

condition.label: in isobutanol, 303.15 K

[
  {
    "mol": "COc1ccc(C(=O)O)cc1",
    "solubility (mole fraction)": 0.0116
  }
]

---

condition.label: in sec-butanol, 328.15 K

[
  {
    "mol": "COc1ccc(C(=O)O)cc1",
    "solubility (mole fraction)": 0.0362
  }
]

---

condition.label: in n-butanol, 288.15 K
parameter: solubility (mole fraction)

[
  {
    "mol": "COc1ccc(C(=O)O)cc1",
    "assay.value": 0.0077
  }
]
